MEASURED_ON: T1, full length recombinant human 2N4R tau (human, UniProt P10636 1-758)
T1 construct: bought from rPeptide; pHrodo Red maleimide-labelled where it stands in uptake assays; also called tau1-441; full length tau
MEASUREMENT_NOTES: SPR SCK, IgG on Protein A, tau in flow

{"BINDER": "#44 VH3VK3 humanised hIgG1 (antibody, V domains shown, also called VH3Vκ3; Clone VH3VK3 (A)) VH: QVQLQESGPGLVKPSETLSLTCTVSGIDLSSYAMAWVRQAPGKGLEWIGCIDRRGGTFYASWVKGRFTISKTSTTVDLQMTSLTAEDTATYFCARDSGAFDPWGQGTLVTVSS VL: DIQMTQSPSSLSASVGDRVTITCQASQSVYDNYLAWYQQKPGQPPKLLIHAASNLASGVPSRFKGSGSGTEFTLTISSLQPDDFATYYCLGEFSCTTTDCNVFGGGTKVEIK", "koff [s⁻¹]": 0.0341}
{"BINDER": "#44_VH4VK4 humanised hIgG1 (antibody, V domains shown, also called VH4Vκ4; pVH/pVL) VH: QVQLQESGPGLVKPSETLSLTCTVSGIDLSSYAMAWVRQAPGKGLEWIGCIDRRGGTFYASWVKGRFTISKDTSKTTVDLQMTSLTAEDTATYFCARDSGAFDPWGQGTLVTVSS VL: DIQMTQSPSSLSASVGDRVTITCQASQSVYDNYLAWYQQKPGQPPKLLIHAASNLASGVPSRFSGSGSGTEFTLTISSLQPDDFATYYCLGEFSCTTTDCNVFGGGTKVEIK", "koff [s⁻¹]": 0.0294}
{"BINDER": "#44 VH2VK4 humanised hIgG1 (antibody, V domains shown, also called VH2Vκ4) VH: QSVQESGPGLVKPSETLSLTCTVSGIDLSSYAMAWVRQAPGKGLEWIGCIDRRGGTFYASWVKGRFTISKTSTTVDLQMTSLTAEDTATYFCARDSGAFDPWGQGTLVTVSS VL: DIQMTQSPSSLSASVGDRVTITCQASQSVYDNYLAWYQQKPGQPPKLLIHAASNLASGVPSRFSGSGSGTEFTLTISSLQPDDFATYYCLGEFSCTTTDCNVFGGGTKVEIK", "koff [s⁻¹]": 0.0195}
{"BINDER": "#44 VH1VK4 humanised hIgG1 (antibody, V domains shown, also called VH1Vκ4) VH: QSVQESGGGLVKPSETLSLTCTVSGIDLSSYAMAWVRQAPGKGLEWIGCIDRRGGTFYASWVKGRFTISKTSTTVDLKMTSLTAEDTATYFCARDSGAFDPWGQGTLVTVSS VL: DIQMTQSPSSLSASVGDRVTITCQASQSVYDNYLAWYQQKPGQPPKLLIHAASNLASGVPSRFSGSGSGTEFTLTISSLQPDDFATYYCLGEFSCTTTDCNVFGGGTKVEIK", "koff [s⁻¹]": 0.0208}
{"BINDER": "#44 VH3VK1 humanised hIgG1 (antibody, V domains shown, also called VH3Vκ1) VH: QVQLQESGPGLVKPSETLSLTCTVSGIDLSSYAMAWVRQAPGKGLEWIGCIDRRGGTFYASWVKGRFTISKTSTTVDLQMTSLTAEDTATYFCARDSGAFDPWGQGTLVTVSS VL: QIVMTQSPSSLSASVGDRVTITCQASQSVYDNYLAWYQQKPGQPPKLLIHAASNLASRVPSRFKGSGSGTEFTLTISSLQCDDFATYYCLGEFSCTTTDCNVFGGGTEVVIK", "koff [s⁻¹]": 0.0121}
{"BINDER": "#44 VH2VK1 humanised hIgG1 (antibody, V domains shown, also called VH2Vκ1) VH: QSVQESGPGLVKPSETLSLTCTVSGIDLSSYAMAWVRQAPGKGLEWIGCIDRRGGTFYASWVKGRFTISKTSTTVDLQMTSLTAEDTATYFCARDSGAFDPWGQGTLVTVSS VL: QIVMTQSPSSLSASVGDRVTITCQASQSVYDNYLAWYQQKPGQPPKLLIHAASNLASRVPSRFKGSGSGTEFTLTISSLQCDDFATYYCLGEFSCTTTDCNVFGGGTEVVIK", "koff [s⁻¹]": 0.021}
{"BINDER": "#44 VH3VK4 humanised hIgG1 (antibody, V domains shown, also called VH3Vκ4; Clone VH3VK4 (B)) VH: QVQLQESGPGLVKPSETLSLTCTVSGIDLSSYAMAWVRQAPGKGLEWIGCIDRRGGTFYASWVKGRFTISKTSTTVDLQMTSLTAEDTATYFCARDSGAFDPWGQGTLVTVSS VL: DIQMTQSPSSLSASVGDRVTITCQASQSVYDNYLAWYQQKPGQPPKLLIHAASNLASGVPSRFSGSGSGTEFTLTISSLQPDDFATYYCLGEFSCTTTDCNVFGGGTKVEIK", "koff [s⁻¹]": 0.043}
